# target under test: EGFR (human)
# condition label: sw 620
reported metric: IC50

structure smiles	recorded value
CCOc1cc2ncc(C#N)c(Nc3ccc4c(C)cc(=O)oc4c3)c2cc1OCC	0.325 µg/mL
CCOc1cc2c(Nc3ccc4cn[nH]c4c3)c(C#N)cnc2cc1OC	4.31 µg/mL
CCOc1cc2ncc(C#N)c(Nc3ccc4c(c3)C(=O)NCC(=O)N4C)c2cc1OCC	> 5 µg/mL

Q) // fetch EGFR (human) IC50 for CCOc1cc2ncc(C#N)c(Nc3ccc4[nH]c(=O)oc(=O)c4c3)c2cc1OCC
A) 2.92 µg/mL

====

# target under test: EGFR (human)
# condition label: mda-mb-435
reported metric: IC50

structure smiles	recorded value
CCOc1cc2ncc(C#N)c(Nc3ccc4cc[nH]c4c3)c2cc1OCC	0.073 to 0.365 µg/mL
CCOc1cc2ncc(C#N)c(Nc3ccc4c(=O)[nH][nH]c(=O)c4c3)c2cc1OCC	> 5 µg/mL

We now examine a further molecule.
Q) For the molecule CCOc1cc2ncc(C#N)c(Nc3ccc4[nH]c(=O)oc(=O)c4c3)c2cc1OCC , what IC50 is on record?
A) > 5 µg/mL

====

Some molecules, each annotated with its measured IC50.
# target under test: EGFR (human) (UniProt P00533)
# Sequence (P00533 whole entry, looked up): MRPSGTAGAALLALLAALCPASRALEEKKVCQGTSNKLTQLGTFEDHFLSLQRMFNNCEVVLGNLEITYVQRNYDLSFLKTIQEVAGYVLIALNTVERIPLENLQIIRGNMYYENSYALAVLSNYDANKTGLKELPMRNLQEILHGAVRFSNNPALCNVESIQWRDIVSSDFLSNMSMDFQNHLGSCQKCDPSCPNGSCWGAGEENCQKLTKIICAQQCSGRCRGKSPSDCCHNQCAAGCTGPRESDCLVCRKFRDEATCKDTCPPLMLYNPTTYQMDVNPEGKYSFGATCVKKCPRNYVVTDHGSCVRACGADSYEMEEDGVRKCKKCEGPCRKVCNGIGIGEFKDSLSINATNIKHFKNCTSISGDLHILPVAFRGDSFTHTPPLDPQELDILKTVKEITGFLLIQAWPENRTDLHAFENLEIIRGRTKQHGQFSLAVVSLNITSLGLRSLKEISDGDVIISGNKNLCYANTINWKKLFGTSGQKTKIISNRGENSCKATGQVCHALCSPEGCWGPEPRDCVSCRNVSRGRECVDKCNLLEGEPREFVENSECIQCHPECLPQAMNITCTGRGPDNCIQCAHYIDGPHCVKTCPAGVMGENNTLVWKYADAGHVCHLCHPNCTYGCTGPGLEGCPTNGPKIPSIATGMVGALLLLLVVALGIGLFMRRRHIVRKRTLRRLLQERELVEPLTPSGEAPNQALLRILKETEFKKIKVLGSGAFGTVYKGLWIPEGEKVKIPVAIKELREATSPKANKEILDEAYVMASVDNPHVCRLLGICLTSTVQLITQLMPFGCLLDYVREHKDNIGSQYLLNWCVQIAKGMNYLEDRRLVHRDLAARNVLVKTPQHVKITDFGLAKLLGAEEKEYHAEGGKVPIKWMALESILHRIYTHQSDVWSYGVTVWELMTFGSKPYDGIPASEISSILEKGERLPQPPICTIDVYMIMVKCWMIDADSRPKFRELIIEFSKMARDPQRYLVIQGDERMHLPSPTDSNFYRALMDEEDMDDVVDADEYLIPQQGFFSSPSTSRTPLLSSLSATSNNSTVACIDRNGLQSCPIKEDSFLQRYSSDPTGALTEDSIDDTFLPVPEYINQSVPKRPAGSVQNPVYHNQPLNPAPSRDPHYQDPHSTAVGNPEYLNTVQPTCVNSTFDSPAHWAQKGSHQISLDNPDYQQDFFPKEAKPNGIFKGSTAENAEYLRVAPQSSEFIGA
# condition label: sw 620

Example entries begin here.
structure smiles	target under test	recorded value
CCOc1cc2ncc(C#N)c(Nc3ccc4c(c3)CCC4)c2cc1OCC	EGFR (human) (UniProt P00533)	< 0.0005 µg/mL
CCOc1cc2ncc(C#N)c(Nc3ccc4c(c3)S(=O)(=O)C=C4)c2cc1OCC	EGFR (human) (UniProt P00533)	0.146 µg/mL

Q) For the molecule COCCOc1cc2ncc(C#N)c(Nc3ccc4cn[nH]c4c3)c2cc1OCCOC , what IC50 is on record?
A) > 5 µg/mL

Q) For the molecule CCOc1cc2ncc(C#N)c(Nc3ccc4c[nH]nc4c3)c2cc1OC , what IC50 is on record?
A) 0.0212 µg/mL

====

# target under test: EGFR (human) (UniProt P00533)
# condition label: sw 620
reported metric: IC50 (µg/mL)
The figure you give is taken to be in µg/mL; do not add the unit.

Example entries begin here.
structure smiles	IC50 [µg/mL]
CCOc1cc2ncc(C#N)c(Nc3ccc4cn[nH]c4c3)c2cc1OCC	0.033
CCOc1cc2ncc(C#N)c(Nc3ccc4c(c3)OCCO4)c2cc1OCC	0.411

We now examine a further molecule.
Q) // fetch EGFR (human) (UniProt P00533) IC50 for CCOc1cc2ncc(C#N)c(Nc3ccc4c(c3)C(=O)OC4)c2cc1OCC
A) 1.56
